- test system: EGFR (Homo sapiens, UniProt P00533)
- Construct: endogenous in cells; host or cells: A431 cells (ATCC CRL-1555)
- Sequence (P00533 25-1210): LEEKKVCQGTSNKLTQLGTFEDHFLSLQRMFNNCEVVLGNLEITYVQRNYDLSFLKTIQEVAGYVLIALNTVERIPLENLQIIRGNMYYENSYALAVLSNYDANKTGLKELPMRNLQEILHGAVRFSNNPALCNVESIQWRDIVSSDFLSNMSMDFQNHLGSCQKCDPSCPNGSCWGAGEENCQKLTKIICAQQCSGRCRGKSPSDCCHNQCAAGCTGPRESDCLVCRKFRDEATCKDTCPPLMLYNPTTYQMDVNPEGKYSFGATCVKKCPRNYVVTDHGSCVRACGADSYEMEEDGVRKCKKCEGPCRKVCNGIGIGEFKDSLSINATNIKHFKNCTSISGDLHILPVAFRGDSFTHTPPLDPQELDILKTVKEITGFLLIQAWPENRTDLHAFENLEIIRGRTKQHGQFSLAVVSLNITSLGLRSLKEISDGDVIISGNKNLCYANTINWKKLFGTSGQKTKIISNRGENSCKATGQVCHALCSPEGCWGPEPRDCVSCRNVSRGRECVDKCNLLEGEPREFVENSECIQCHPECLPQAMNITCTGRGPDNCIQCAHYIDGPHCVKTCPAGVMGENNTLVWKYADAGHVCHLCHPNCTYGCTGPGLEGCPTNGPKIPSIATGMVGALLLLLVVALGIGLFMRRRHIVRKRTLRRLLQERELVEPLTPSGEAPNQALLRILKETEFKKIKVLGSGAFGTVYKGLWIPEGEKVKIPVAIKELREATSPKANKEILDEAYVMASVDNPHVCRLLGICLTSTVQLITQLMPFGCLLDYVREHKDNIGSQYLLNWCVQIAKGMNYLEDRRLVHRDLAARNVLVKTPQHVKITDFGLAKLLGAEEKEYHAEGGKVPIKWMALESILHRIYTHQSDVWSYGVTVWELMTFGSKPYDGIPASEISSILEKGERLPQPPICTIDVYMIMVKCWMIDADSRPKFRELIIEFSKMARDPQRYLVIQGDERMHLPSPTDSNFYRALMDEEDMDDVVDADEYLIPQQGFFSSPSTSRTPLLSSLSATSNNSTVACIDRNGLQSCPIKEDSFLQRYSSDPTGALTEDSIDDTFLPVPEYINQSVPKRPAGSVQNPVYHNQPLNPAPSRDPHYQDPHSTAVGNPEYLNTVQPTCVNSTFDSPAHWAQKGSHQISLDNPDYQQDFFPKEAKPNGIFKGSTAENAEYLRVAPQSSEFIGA
- measurement protocol: EGFR in-cell Western (ICW) screening protocol
- Type: cell-based
- Parameters: unit not given here
- assay setup: re-test
value kind: ICW Re-Test

Example entries begin here.
| molecule | observed value |
| --- | --- |
| O=[N+]([O-])c1cccc(NC(c2ccco2)c2ccc3cccnc3c2O)c1 (centres unmarked) | 18.32 |
| COc1ccc(C(Nc2ccccn2)c2ccc3ccc(C)nc3c2O)cc1OC (centres unmarked) | 45.57 |
| Cc1ccnc(NC(c2cc(C)ccc2O)c2ccc3cccnc3c2O)c1 (centres unmarked) | 35.03 |

[1] COc1cc(C(Nc2ccccn2)c2cc(Cl)c3cccnc3c2O)cc(I)c1O (centres unmarked)
[2] CCOc1ccc(NC(c2ccccn2)c2ccc3cccnc3c2O)cc1 (centres unmarked)
Record comparison, field ICW Re-Test: mark the lower of 1 and 2 . Field: selected label. Fill in the label of the entry you choose.
1

---

- test system: EGFR (Homo sapiens)
- Construct: endogenous in cells; host or cells: A431 cells (ATCC CRL-1555)
- measurement protocol: EGFR in-cell Western (ICW) screening protocol
- Assay type: cell-based
- Design: unit not given here
- assay setup: re-test
value kind: ICW Re-Test

[I] Cc1ccc2ccc(C(Nc3ccccn3)c3sccc3C)c(O)c2n1 (centres unmarked) [compound 10958]
[II] COc1ccc(NC(c2cccnc2)c2ccc3cccnc3c2O)cc1 (centres unmarked) [compound 11152]
Lab notebook, comparison: I versus II , higher ICW Re-Test goes to which? # reply format: chosen label
I

---

- Test system: epithelial carcinoma A431 cell line
- measurement protocol: MTT Cell Proliferation Assay, A431 cell line
- Assay type: cell-based
- assay setup: 72 h; first value of A431/MDBK pair; read-out: MTT-72 h A431
- Source text: The following example describes the MTT Cell Proliferation Assay. The MTT Cell Proliferation Assay is a colorimetric assay system that measures the reduction of the tetrazolium salt MTT (3-(4,5-dimethylthiazol-2-yl)-2,5-diphenyltetrazolium bromide) into insoluble formazan crystals, produced by the mitochondria of viable cells. […] The color can then be quantified by spectrophotometric means. […] Plates were read in a Tecan Sunrize UV plate reader, at 560 nm. […]
pIC50: −log10 of the molar value.
value kind: pIC50

Illustrative cases are given below, each with its answer.
| molecule | pIC50 |
| --- | --- |
| CCOc1ccc(C(Nc2ccccn2)c2cc(Cl)c3cccnc3c2O)cc1 (stereo not shown) | 5.24 |
| COc1ccc(C(Nc2cc(C)ccn2)c2ccc3cccnc3c2O)cc1O (stereo not shown) | 5.08 |
| CCOc1ccc(NC(c2ccccn2)c2ccc3cccnc3c2O)cc1 (stereo not shown) [compound 11000] | 4.94 |
| CCOc1ccc(NC(c2ccccn2)c2ccc3cccnc3c2O)cc1 (stereo not shown) [compound 1073] | 5.32 |

[A] Cc1cccc(NC(c2ccc3c(c2)OCO3)c2ccc3cccnc3c2O)n1 (stereo not shown) [compound 10487]
[B] Cc1cccc(NC(c2ccc3c(c2)OCO3)c2ccc3cccnc3c2O)n1 (stereo not shown) [compound 10055]
[C] Cc1cccc(NC(c2ccc(C(F)(F)F)cc2)c2ccc3cccnc3c2O)n1 (stereo not shown)
Give the ascending ranking of the items by reported pIC50. Put the labels in the order asked and list them.
B, A, C
(B: 4.92, A: 5.26, C: 6.59)
